Data provenance: patent US20170335314

Tested on: biotinylated anti-BRD7 Fab fragment (murine IgG1 isotype; bFab) (Mus musculus)
Assay: pulldown
Settings: streptavidin bead capture with QPCR readout; PBSM (PBS with 1 mM MgCl2), overnight
Quantity Kind: pKd
Entry type: numeric. Quantity: pKd, the -log10 of concentration in molar units.

Entry GCAAAGACATCTGGACACGCCACTAAGTGGAGGTGATCTGTACTTCATTTATGAGATCGCGGCGAGGAGAAGGAGACTTAGAGGC [aptamer 228 (10AptR1)] : reported pKd = ? 7.96
